test system: PF-382 (T-Lymphoblastic Leukemia); test: Bliss excess, mean over the matrix (fraction); higher = more synergy
Observation Type: Bliss excess

Molecule: Cn1cnc2c(F)c(Nc3ccc(Br)cc3Cl)c(C(=O)NOCCO)cc21 [Selumetinib] + C[C@@H]1COCCN1C2=NC(=NC(=C2)C3(CC3)[S@](=N)(=O)C)C4=C5C=CNC5=NC=C4 [AZD6738] (first compound max 10 µM, 7x7, partner max 10 µM)
Observation Type: Bliss excess
Readout Value: -0.0047

Molecule: CC(=O)c1c(C)c2cnc(Nc3ccc(N4CCNCC4)cn3)nc2n(C2CCCC2)c1=O [Palbociclib] + Cn1cnc2c(F)c(Nc3ccc(Br)cc3Cl)c(C(=O)NOCCO)cc21 [Selumetinib] (first compound max 10 µM, 7x7, partner max 10 µM)
Observation Type: Bliss excess
Readout Value: 0.043

----------
Reported Bliss excess values are given for each entry in this list.
system: OCUM-1 (Gastric Carcinoma); experiment: Bliss excess, mean over the matrix (fraction); higher = more synergy

Compound: O=C(c1cc(Cc2n[nH]c(=O)c3ccccc23)ccc1F)N1CCN(C(=O)C2CC2)CC1 [Olaparib] + Cc1c2c(nn1C)CSCc1cc(n(C)n1)CSc1cc(c3ccccc3c1)OCCCc1c(C(=O)O)n(C)c3c-2c(Cl)ccc13 [AZD5991] (first compound max 10 µM, 7x7, partner max 1 µM)
Bliss excess: -0.0497

Compound: CC1(C)CCC(CN2CCN(c3ccc(C(=O)NS(=O)(=O)c4ccc(NCC5CCOCC5)c([N+](=O)[O-])c4)c(Oc4cnc5[nH]ccc5c4)c3)CC2)=C(c2ccc(Cl)cc2)C1 [Venetoclax] + CN(C)CCCOc1ccc(-c2ccc3ncc4c(c3c2)n(C2CCOCC2)c(=O)n4C)cn1 [AZD0156] (first compound max 1 µM, 7x7, partner max 1 µM)
Bliss excess: -0.0257

Compound: NC1(C(=O)N[C@@H](CCO)c2ccc(Cl)cc2)CCN(c2ncnc3[nH]ccc23)CC1 [Capivasertib] + C[C@@H]1COCCN1C2=NC(=NC(=C2)C3(CC3)[S@](=N)(=O)C)C4=C5C=CNC5=NC=C4 [AZD6738] (first compound max 10 µM, 7x7, partner max 10 µM)
Bliss excess: -0.0088

----------
test system: SNU-C1 (Colorectal Carcinoma); assay: Bliss excess, mean over the matrix (fraction); higher = more synergy
Observation Type: Bliss excess

Compound: Cc1cc2ncnn2cc1Nc1ncc2c(n1)n(C1CCOCC1)c(=O)n2C [AZD7648] + COc1cc([C@@H]2c3cc4c(cc3[C@@H](O[C@@H]3O[C@@H]5CO[C@@H](C)O[C@H]5[C@H](O)[C@H]3O)[C@H]3COC(=O)[C@H]23)OCO4)cc(OC)c1O [Etoposide] (first compound max 10 µM, 7x7, partner max 10 µM)
Readout Value: -0.0254
//
Compound: CCc1c2c(nc3ccc(O)cc13)-c1cc3c(c(=O)n1C2)COC(=O)[C@]3(O)CC [SN-38] + O=C(c1cc(Cc2n[nH]c(=O)c3ccccc23)ccc1F)N1CCN(C(=O)C2CC2)CC1 [Olaparib] (first compound max 0.3 µM, 7x7, partner max 10 µM)
Readout Value: -0.0419
//
Compound: C[C@@H](Nc1cc(F)cc(F)c1)c1cc(C(=O)N(C)C)cc2c(=O)cc(N3CCOCC3)oc12 [AZD8186] + C1CN(CCC1(C(=O)N[C@@H](CCO)C2=CC=C(C=C2)Cl)N)C3=NC=NC4=C3C=CN4 [AZD5363] (first compound max 10 µM, 7x7, partner max 10 µM)
Readout Value: -0.0605
//
Compound: CCN(CCO)CCCOc1ccc2c(Nc3cc(CC(=O)Nc4cccc(F)c4)[nH]n3)ncnc2c1 [AZD2811] + C[C@@H]1COCCN1C2=NC(=NC(=C2)C3(CC3)[S@](=N)(=O)C)C4=C5C=CNC5=NC=C4 [AZD6738] (first compound max 1 µM, 7x7, partner max 10 µM)
Readout Value: -0.122

----------
Reported Bliss excess values are given for each entry in this list.
test system: EW-13 (Ewing's Sarcoma); assay: Bliss excess, mean over the matrix (fraction); higher = more synergy
Observation Type: Bliss excess

Compound: COc1nnc2ccc(N3CCC(c4ccc(OCCN5CCN(C)C(=O)[C@H]5C)cc4)CC3)nn12 [AZD5153] + C[C@@H]1COCCN1C2=NC(=NC(=C2)C3(CC3)[S@](=N)(=O)C)C4=C5C=CNC5=NC=C4 [AZD6738] (first compound max 1 µM, 7x7, partner max 10 µM)
Readout Value: 0.0682

Compound: NC1(C(=O)N[C@@H](CCO)c2ccc(Cl)cc2)CCN(c2ncnc3[nH]ccc23)CC1 [Capivasertib] + CC(=O)c1c(C)c2cnc(Nc3ccc(N4CCNCC4)cn3)nc2n(C2CCCC2)c1=O [Palbociclib] (first compound max 10 µM, 7x7, partner max 10 µM)
Readout Value: -0.0161

Compound: CC1(C)CCC(CN2CCN(c3ccc(C(=O)NS(=O)(=O)c4ccc(NCC5CCOCC5)c([N+](=O)[O-])c4)c(Oc4cnc5[nH]ccc5c4)c3)CC2)=C(c2ccc(Cl)cc2)C1 [Venetoclax] + Cc1cc2ncnn2cc1Nc1ncc2c(n1)n(C1CCOCC1)c(=O)n2C [AZD7648] (first compound max 1 µM, 7x7, partner max 10 µM)
Readout Value: -0.0417

Compound: COc1cccc(OCCCN)c1-c1cc(Nc2cnc(C#N)cn2)n[nH]1 [Prexasertib] + CN(C)CCCOc1ccc(-c2ccc3ncc4c(c3c2)n(C2CCOCC2)c(=O)n4C)cn1 [AZD0156] (first compound max 1 µM, 7x7, partner max 1 µM)
Readout Value: 0.0557

----------
Reported combination Emax values are given for each entry in this list.
tested on: NB7 (Neuroblastoma); assay: combination Emax (second highest fraction inhibited in the dose matrix, 72 h); higher = more inhibition; extreme values may be limits of the assay

Compound: CN(CCO)CC[C@H](CSc1ccccc1)Nc1ccc(S(=O)(=O)NC(=O)c2ccc(N3CCC([C@@H](O)c4ccccc4-c4ccc(Cl)cc4)CC3)cc2)cc1S(=O)(=O)C(F)(F)F [AZD4320] + C1CN(CCC1(C(=O)N[C@@H](CCO)C2=CC=C(C=C2)Cl)N)C3=NC=NC4=C3C=CN4 [Capivasertib] (first compound max 1 µM, 7x7, partner max 3 µM)
Tested System: NB7 (Neuroblastoma)
combination Emax: 0.0214
//
Compound: NC1(C(=O)N[C@@H](CCO)c2ccc(Cl)cc2)CCN(c2ncnc3[nH]ccc23)CC1 [Capivasertib] + COc1nnc2ccc(N3CCC(c4ccc(OCCN5CCN(C)C(=O)[C@H]5C)cc4)CC3)nn12 [AZD5153] (first compound max 10 µM, 7x7, partner max 1 µM)
Tested System: NB7 (Neuroblastoma)
combination Emax: 0.762
//
Compound: CN(CCO)CC[C@H](CSc1ccccc1)Nc1ccc(S(=O)(=O)NC(=O)c2ccc(N3CCC([C@@H](O)c4ccccc4-c4ccc(Cl)cc4)CC3)cc2)cc1S(=O)(=O)C(F)(F)F [AZD4320] + CS(=O)(=O)CCNCc1ccc(-c2ccc3ncnc(Nc4ccc(OCc5cccc(F)c5)c(Cl)c4)c3c2)o1 [Lapatinib] (first compound max 1 µM, 7x7, partner max 10 µM)
Tested System: NB7 (Neuroblastoma)
combination Emax: 0.189

----------
tested on: PFSK-1 (Other Solid Carcinomas); assay: Bliss excess, mean over the matrix (fraction); higher = more synergy

Molecule: CC(=O)c1c(C)c2cnc(Nc3ccc(N4CCNCC4)cn3)nc2n(C2CCCC2)c1=O [Palbociclib] + CC1(C)CCC(CN2CCN(c3ccc(C(=O)NS(=O)(=O)c4ccc(NCC5CCOCC5)c([N+](=O)[O-])c4)c(Oc4cnc5[nH]ccc5c4)c3)CC2)=C(c2ccc(Cl)cc2)C1 [Venetoclax] (first compound max 10 µM, 7x7, partner max 1 µM)
Tested System: PFSK-1 (Other Solid Carcinomas)
Bliss excess: -0.0425
//
Molecule: CC1(C)CCC(CN2CCN(c3ccc(C(=O)NS(=O)(=O)c4ccc(NCC5CCOCC5)c([N+](=O)[O-])c4)c(Oc4cnc5[nH]ccc5c4)c3)CC2)=C(c2ccc(Cl)cc2)C1 [Venetoclax] + COc1cc(Nc2ncc3c(n2)-c2ccc(Cl)cc2C(c2c(F)cccc2OC)=NC3)ccc1C(=O)O [Alisertib] (first compound max 1 µM, 7x7, partner max 10 µM)
Tested System: PFSK-1 (Other Solid Carcinomas)
Bliss excess: 0.0652

----------
tested on: SCC-3 (B-Cell Non-Hodgkin's Lymphoma); test: Bliss excess, mean over the matrix (fraction); higher = more synergy
Reported Bliss excess values are given for each entry in this list.

Compound: Cc1c2c(nn1C)CSCc1cc(n(C)n1)CSc1cc(c3ccccc3c1)OCCCc1c(C(=O)O)n(C)c3c-2c(Cl)ccc13 [AZD5991] + C1CN(CCC1(C(=O)N[C@@H](CCO)C2=CC=C(C=C2)Cl)N)C3=NC=NC4=C3C=CN4 [Capivasertib] (first compound max 1 µM, 7x7, partner max 3 µM)
Tested System: SCC-3 (B-Cell Non-Hodgkin's Lymphoma)
Bliss excess: 0.102

Compound: CC1(C)CCC(CN2CCN(c3ccc(C(=O)NS(=O)(=O)c4ccc(NCC5CCOCC5)c([N+](=O)[O-])c4)c(Oc4cnc5[nH]ccc5c4)c3)CC2)=C(c2ccc(Cl)cc2)C1 [Venetoclax] + COc1cc(Nc2ncc3c(n2)-c2ccc(Cl)cc2C(c2c(F)cccc2OC)=NC3)ccc1C(=O)O [Alisertib] (first compound max 1 µM, 7x7, partner max 10 µM)
Tested System: SCC-3 (B-Cell Non-Hodgkin's Lymphoma)
Bliss excess: 0.0308

Compound: C[C@@H]1COCCN1c1cc(C2([S@](C)(=N)=O)CC2)nc(-c2ccnc3[nH]ccc23)n1 [AZD6738] + O=C(c1cc(Cc2n[nH]c(=O)c3ccccc23)ccc1F)N1CCN(C(=O)C2CC2)CC1 [Olaparib] (first compound max 10 µM, 7x7, partner max 10 µM)
Tested System: SCC-3 (B-Cell Non-Hodgkin's Lymphoma)
Bliss excess: 0.0103
